Tested on: Balb/c mice
Procedure Details: Polypeptide chip-based vaccine immunogenicity scoring system
Format: in vivo
Test Settings: adjuvant Imjet Alumn; 7 peptides co-immunized in mice
Method: Data distribution and characteristics thereof are analyzed based on a) and b), a polypeptide chip-based vaccine immunogenicity scoring system (referring to Table 7) is designed. 10 combinations are evaluated by the polypeptide chip-based vaccine immunogenicity scoring system. An evaluation method is consistent with that in Embodiment II. […] This embodiment is consistent with Embodiment II. Each combination is evaluated by the polypeptide chip-based vaccine immunogenicity scoring system. […]
Listed below: 2) Mouse performance B3 values for each entry.
The response must contain the number and no unit.

Would you please look over these solved cases?
LQDLKWARFPKS [SEQ ID NO:29] ... 1
YGANKDGI (SARS-CoV-2) [SEQ ID NO:21] ... 4
SVYAWNRKR (SARS-CoV-2) [SEQ ID NO:3] ... 1
KLDDKDPNFK (SARS-CoV-2) [SEQ ID NO:20] ... 3
SNLKPFER (SARS-CoV-2) [SEQ ID NO:36] ... 1

Identify 2) Mouse performance B3 associated with the sequence MEVTPSGTWLTY (SARS-CoV-2) [SEQ ID NO:22]
0

Name the recorded 2) Mouse performance B3 of the sequence listed here: VYDPLQPEL (SARS-CoV-2) [SEQ ID NO:34]
0

====

Test system: Balb/c mice
Procedure Details: Polypeptide chip-based vaccine immunogenicity scoring system
Assay type: in vivo
Test Settings: Embodiment III; polypeptide-KLH; value of the whole mix
Below, each entry is listed with its recorded C: Timing-sequence response and specificity score.
Respond with the number and no other words.

ALNTPKDH (SARS-CoV-2) [SEQ ID NO:19] ... 1
ECVLGQSKR (SARS-CoV-2) [SEQ ID NO:10] ... 1
MADSNGTIT (SARS-CoV-2) [SEQ ID NO:16] ... 0.5
FHPLADNKF (SARS-CoV-2) [SEQ ID NO:17] ... 0.5
GRLQSLQTY (SARS-CoV-2) [SEQ ID NO:5] ... 0.5
ERSEKSYEL (SARS-CoV-2) [SEQ ID NO:28] ... 0.5

Give the reported value of C: Timing-sequence response and specificity score for this record: LPFNDGVYF (SARS-CoV-2) [SEQ ID NO:14]
0.5

Give recorded C: Timing-sequence response and specificity score. YTNDKACPL (SARS-CoV-2) [SEQ ID NO:1]
0.5

Recall and state the measured C: Timing-sequence response and specificity score for VNKGEDIQLLKS [SEQ ID NO:27] .
0.5

Input KLDDKDPNFK (SARS-CoV-2) [SEQ ID NO:20] , output reported C: Timing-sequence response and specificity score.
0.5

Determine from records and report C: Timing-sequence response and specificity score for KKPASRELKVTF [SEQ ID NO:24]
0.5

Look up C: Timing-sequence response and specificity score of IRGGDGKMKD (SARS-CoV-2) [SEQ ID NO:40] and report it.
1

====

Tested on: Balb/c mice
Procedure Details: Polypeptide chip-based vaccine immunogenicity scoring system
Assay type: in vivo
Test Settings: adjuvant MA103A; 7 peptides co-immunized in mice
Property Measured: 1) 95 percentile grouping number A1
Field format: numeric only.

MEVTPSGTWLTY (SARS-CoV-2) [SEQ ID NO:22] ... 0.11
LQDLKWARFPKS [SEQ ID NO:29] ... 0.08
SVYAWNRKR (SARS-CoV-2) [SEQ ID NO:3] ... 0.08
YGANKDGI (SARS-CoV-2) [SEQ ID NO:21] ... 0.042
VYDPLQPEL (SARS-CoV-2) [SEQ ID NO:34] ... 0.115
KLDDKDPNFK (SARS-CoV-2) [SEQ ID NO:20] ... 0.015

Consider the record given below.
For the sequence SNLKPFER (SARS-CoV-2) [SEQ ID NO:36] , report 1) 95 percentile grouping number A1.
0.065
